Each record here notes measured relative viability.
System: SK-MES-1
Experiment: relative viability (nuclei count vs DMSO), 5 days (fraction); higher = more cells survive
Details: first compound 0.01581 µM
Write no unit; give the number alone.

Would you please look over these solved cases?
MOLECULE	READOUT_NUMBER
Nc1ccn([C@@H]2O[C@H](CO)[C@@H](O)[C@@H]2O)c(=O)n1 [Cytarabine] + CS(=O)(=O)CCNCc1ccc(-c2ccc3ncnc(Nc4ccc(OCc5cccc(F)c5)c(Cl)c4)c3c2)o1 [Lapatinib] (partner 2 µM)	0.396
Nc1ccn([C@@H]2O[C@H](CO)[C@@H](O)[C@@H]2O)c(=O)n1 [Cytarabine] + Nc1ncn([C@H]2C[C@H](O)[C@@H](CO)O2)c(=O)n1 [Decitabine] (partner 2 µM)	0.211

Give the measured relative viability of COc1cc2nccc(Oc3ccc(NC(=O)Nc4cc(C)on4)c(Cl)c3)c2cc1OC [Tivozanib] + CC1(C)CCC(c2ccc(Cl)cc2)=C(CN2CCN(c3ccc(C(=O)NS(=O)(=O)c4ccc(N[C@H](CCN5CCOCC5)CSc5ccccc5)c(S(=O)(=O)C(F)(F)F)c4)cc3)CC2)C1 [Navitoclax] (partner 0.5 µM) .
1.16

Give the measured relative viability of COc1cc2nccc(Oc3ccc(NC(=O)Nc4cc(C)on4)c(Cl)c3)c2cc1OC [Tivozanib] + COc1cc2c(Oc3ccc(NC(=O)C4(C(=O)Nc5ccc(F)cc5)CC4)cc3F)ccnc2cc1OCCCN1CCOCC1 [Foretinib] (partner 0.25 µM) .
0.974

---

Each record here notes measured relative viability.
System: NCI-H1437
Assay: relative viability (nuclei count vs DMSO), 5 days (fraction); higher = more cells survive
Conditions: first compound 2.53 µM
Write no unit; give the number alone.

Would you please look over these solved cases?
COMPOUND	MEASURED_TARGET	relative viability
Cc1cnc(-c2cnc(NCCNc3ccc(C#N)cn3)nc2-c2ccc(Cl)cc2Cl)[nH]1 + COc1cc2c(Oc3ccc(NC(=O)C4(C(=O)Nc5ccc(F)cc5)CC4)cc3F)ccnc2cc1OCCCN1CCOCC1 [Foretinib] (partner 0.25 µM)	NCI-H1437	1.25
O=c1[nH]c2ccccc2n1C1CCN(CCCC(c2ccc(F)cc2)c2ccc(F)cc2)CC1 [Pimozide] + CCNC(=O)c1noc(-c2cc(C(C)C)c(O)cc2O)c1-c1ccc(CN2CCOCC2)cc1 [Luminespib] (partner 0.01 µM)	NCI-H1437	0.988
O=c1[nH]c2ccccc2n1C1CCN(CCCC(c2ccc(F)cc2)c2ccc(F)cc2)CC1 [Pimozide] + Cc1cc(Nc2cc(N3CCN(C)CC3)nc(Sc3ccc(NC(=O)C4CC4)cc3)n2)n[nH]1 [Tozasertib] (partner 0.1 µM)	NCI-H1437	0.362

Let's switch to this compound now.
Give the reported relative viability for Cc1cnc(-c2cnc(NCCNc3ccc(C#N)cn3)nc2-c2ccc(Cl)cc2Cl)[nH]1 + Cc1nc(Nc2ncc(C(=O)Nc3c(C)cccc3Cl)s2)cc(N2CCN(CCO)CC2)n1 [Dasatinib] (partner 0.075 µM) (system: NCI-H1437).
0.278

---

Test system: EKVX
Experiment: relative viability (nuclei count vs DMSO), 5 days (fraction); higher = more cells survive
Conditions: first compound 8 µM
VALUE_TYPE: relative viability
Write no unit; give the number alone.

COMPOUND	relative viability
O=c1[nH]c2ccccc2n1C1CCN(CCCC(c2ccc(F)cc2)c2ccc(F)cc2)CC1 [Pimozide] + Nc1nc2[nH]cc(CCc3ccc(C(=O)N[C@@H](CCC(=O)O)C(=O)O)cc3)c2c(=O)[nH]1 [Pemetrexed] (partner 0.2 µM)	0.412

Let's switch to this compound now.
Give the reported relative viability for O=c1[nH]c2ccccc2n1C1CCN(CCCC(c2ccc(F)cc2)c2ccc(F)cc2)CC1 [Pimozide] + O=C(c1cc(Cc2n[nH]c(=O)c3ccccc23)ccc1F)N1CCN(C(=O)C2CC2)CC1 [Olaparib] (partner 8 µM) (system: EKVX).
0.795
